ENDPOINT_NAME: melting point (°C)

smiles_notation=CC[C@]1(O)C[C@H]2C[N@](CCc3c([nH]c4ccccc34)[C@@](C(=O)OC)(c3cc4c(cc3OC)N(C)[C@H]3[C@@](O)(C(N)=O)[C@H](O)[C@]5(CC)C=CCN6CC[C@]43[C@@H]65)C2)C1 measurement_unit=°C number=231
smiles_notation=CC(C)(C)C(=O)C1C(=O)c2ccccc2C1=O measurement_unit=°C number=109
smiles_notation=Cc1c(N)cc([N+](=O)[O-])cc1C(N)=O measurement_unit=°C number=199
smiles_notation=Brc1ccc2c3c(cccc13)CC2 measurement_unit=°C number=52
smiles_notation=C[S@](=O)c1ccccc1 measurement_unit=°C number=32
smiles_notation=CCCCCCCCCCCCCCCC(=O)CC measurement_unit=°C number=51
smiles_notation=NC(=O)OCC(COC(N)=O)c1ccccc1 measurement_unit=°C number=152
smiles_notation=Nc1ccc(C2(c3ccc(N)cc3)OC(=O)c3ccccc32)cc1 measurement_unit=°C number=203

Just for reference, the OPERA property sets (Mansouri et al. 2018) is where these values come from.
